The entries that follow carry IC50 values tested on Histone-arginine methyltransferase CARM1 (Homo sapiens, UniProt Q86X55), drawn from several published reports.

CNCC(O)COc1cccc(-c2nc(N[C@@H]3CCOC3)c(C)c(C(=O)N(C)CC3CCOCC3)n2)c1 (some centres unmarked): 100 to 1000 nM

Lab request: please report IC50 under test system Histone-arginine methyltransferase CARM1 (Homo sapiens, UniProt Q86X55) for CNCC(O)COc1ccc(C#N)c(-c2nc(NC3CCN(C(=O)OC)CC3)c(C)c(-c3c(C)noc3C)n2)c1 (centres unmarked)
100 to 1000 nM

Lab request: please report IC50 under test system Histone-arginine methyltransferase CARM1 (Homo sapiens, UniProt Q86X55) for `NCCNCc1ccc(-c2cnc3c(c2)OCC(=O)N3)cc1`
6290 nM

Lab request: please report IC50 under test system Histone-arginine methyltransferase CARM1 (Homo sapiens, UniProt Q86X55) for `CNCCN(C)Cc1cccc(-c2cc(C(=O)NC3CCOCC3)c3cnn(C)c3n2)c1`
137 nM

Lab request: please report IC50 under test system Histone-arginine methyltransferase CARM1 (Homo sapiens, UniProt Q86X55) for CNCC(O)COc1cccc(-c2nc(NC3CCOCC3)cc(-c3ccc(S(C)(=O)=O)cc3)n2)c1 (centres unmarked)
100 to 1000 nM

Lab request: please report IC50 under test system Histone-arginine methyltransferase CARM1 (Homo sapiens, UniProt Q86X55) for `CNCCN(C)Cc1cccc(-c2cc(C(=O)NCc3ccccc3Cl)c3cnn(C(C)C)c3n2)c1`
77.3 nM

Lab request: please report IC50 under test system Histone-arginine methyltransferase CARM1 (Homo sapiens, UniProt Q86X55) for `CN(CCN)Cc1c[nH]nc1-c1ccoc1`
3010 to 10000 nM

Lab request: please report IC50 under test system Histone-arginine methyltransferase CARM1 (Homo sapiens, UniProt Q86X55) for CNCC(O)COc1cccc(-c2nc(N[C@@H]3CCOC3)c(C)c(N3CCN(C(C)=O)CC34CC4)n2)c1 (some centres unmarked)
100 to 1000 nM
